All values here come from patent US20230159546A1.

# experimental target: UniProt:P0DTD1
# procedure details: SARS-CoV-2 3C-like (3CL) protease fluorescence assay (FRET)
# Type: biochemical
# condition description: recombinant SARS-CoV-2 3CL-protease 10 nM, 30 min preincubation at RT, duplicate; read-out: FRET IC50
Consider the following compounds; for each one, report its IC50.

Enquiry: Tell me the measured IC50 of CC(C)C[C@@H](C(=O)Nc1cc(F)cc(F)c1)C(=O)N1C[C@]2(C[C@H]1C#N)C(=O)Nc1ccccc12 (single isomer, unassigned) , please.
Return: > 1000 nM

Enquiry: Recorded IC50 for CC(C)(C(=O)NC1CC1)C(=O)N1C[C@]2(C[C@H]1C#N)C(=O)Nc1ccccc12 , please?
Return: > 1000 nM

Enquiry: Would you kindly share the measured IC50 for CC1(C)CCC(NC(=O)C(=O)N2C[C@]3(C[C@H]2C#N)C(=O)Nc2ccccc23)CC1 ?
Return: > 1000 nM

Enquiry: For the compound shown here, N#C[C@@H]1C[C@@]2(CN1C(=O)C(=O)NC1(c3ccccc3)CCCC1)C(=O)Nc1ccccc12 , give the reported IC50.
Return: < 100 nM

Enquiry: Report IC50 for N#C[C@@H]1C[C@@]2(CN1C(=O)NCc1ccccc1)C(=O)Nc1ccccc12 please.
Return: > 1000 nM

Enquiry: Consider the compound N#C[C@@H]1C[C@@]2(CN1C(=O)C(Cc1ccccc1)C(=O)C1CC1)C(=O)Nc1ccccc12 (stereo partly drawn) and give its measured IC50.
Return: 100 to 1000 nM

Enquiry: # get_value(readout='IC50', item= CC(C)NC(=O)[C@@H](Cc1ccccc1)C(=O)N1C[C@]2(C[C@H]1C#N)C(=O)Nc1ccccc12 )
Return: 100 to 1000 nM

Enquiry: I would be grateful if you could share the reported IC50 for CC(C)CC(C(=O)Nc1ccc(F)cc1Cl)C(=O)N1C[C@]2(C[C@H]1C#N)C(=O)Nc1ccccc12 (stereo partly drawn) .
Return: > 1000 nM

Enquiry: Can you look up the measured IC50 of CC(=O)N1C[C@]2(C[C@H]1C#N)C(=O)Nc1ccccc12 for me?
Return: > 1000 nM

Enquiry: Would you mind telling me what IC50 value was observed for N#C[C@@H]1C[C@@]2(CN1S(=O)(=O)C1CCCC1)C(=O)Nc1ccccc12 ?
Return: > 1000 nM

Enquiry: Any idea what IC50 was measured for N#C[C@@H]1C[C@@]2(CN1S(=O)(=O)Nc1ccccc1)C(=O)Nc1ccccc12 ?
Return: > 1000 nM

Enquiry: Looking for the measured IC50 of CC(C)CC(C(=O)N(C)c1ccccc1)C(=O)N1C[C@]2(C[C@H]1C#N)C(=O)Nc1ccccc12 (stereo partly drawn) , can you help?
Return: > 1000 nM
